# credit: paper PMC12027149

target: Acetylcholinesterase (AChE, EC 3.1.1.7) (Electrophorus electricus, UniProt O42275); construct: purchased Sigma-Aldrich; assay: Acetylcholinesterase inhibition, modified Ellman colorimetric method; assay type: biochemical; details: IC50, AChE inhibition, 0.03–2 mM, Ellman assay, Hill fit
Sequence (O42275 24-633): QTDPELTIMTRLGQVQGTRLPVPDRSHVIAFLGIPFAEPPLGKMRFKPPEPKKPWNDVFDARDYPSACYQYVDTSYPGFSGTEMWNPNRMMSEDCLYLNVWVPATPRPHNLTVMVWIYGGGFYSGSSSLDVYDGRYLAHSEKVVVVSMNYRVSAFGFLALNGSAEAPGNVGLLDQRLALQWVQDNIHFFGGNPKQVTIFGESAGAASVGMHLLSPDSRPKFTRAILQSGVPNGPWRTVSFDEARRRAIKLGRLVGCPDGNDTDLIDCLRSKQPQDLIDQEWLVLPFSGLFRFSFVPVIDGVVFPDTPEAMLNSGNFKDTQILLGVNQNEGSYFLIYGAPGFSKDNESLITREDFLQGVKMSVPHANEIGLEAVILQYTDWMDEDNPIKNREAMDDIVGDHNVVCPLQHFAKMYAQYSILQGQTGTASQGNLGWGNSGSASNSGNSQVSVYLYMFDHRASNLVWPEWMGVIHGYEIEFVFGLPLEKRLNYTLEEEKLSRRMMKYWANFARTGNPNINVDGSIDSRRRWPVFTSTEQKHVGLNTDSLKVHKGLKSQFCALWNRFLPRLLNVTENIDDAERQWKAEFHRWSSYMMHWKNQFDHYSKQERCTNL
// IC50 lookup, one value per entry

compound: CNC(C)C(=O)c1cccc(Cl)c1 (racemic) [3-CMC (2)]
tested system: Acetylcholinesterase (AChE, EC 3.1.1.7) (Electrophorus electricus, UniProt O42275)
reading: 800 µM
--
compound: CNC(C)C(=O)c1ccc(Cl)cc1 (racemic) [4-CMC (3)]
tested system: Acetylcholinesterase (AChE, EC 3.1.1.7) (Electrophorus electricus, UniProt O42275)
reading: ~2000 µM
--
compound: CC(NC(C)(C)C)C(=O)c1ccc(Cl)cc1 (racemic) [4-Cl-TBC (20)]
tested system: Acetylcholinesterase (AChE, EC 3.1.1.7) (Electrophorus electricus, UniProt O42275)
reading: ~2000 µM
--
compound: CCNC(C)C(=O)c1cccc(Cl)c1 (racemic) [3-CEC (5)]
tested system: Acetylcholinesterase (AChE, EC 3.1.1.7) (Electrophorus electricus, UniProt O42275)
reading: 800 µM

Challenge: Need IC50 of CNC(C)C(=O)c1ccc(C)cc1 (centres unmarked) [Mephedrone (M), Mephedrone, reference compound] , thanks.
Response given: 800 µM
